Value source: the supplement of paper PMC8617591

Test system: Mycobacterium tuberculosis Erdman (autoluminescent)
Experiment: total FIC50 (Loewe) at 50% inhibition, three-drug combination (log2); higher = more antagonistic
Conditions: in vitro model: acidic pH 5.7; time point: constant (~7 days, model-specific)
Attribute: total FIC50
quantity: total FIC50

[
  {
    "compound": "COc1nc2ccc(Br)cc2cc1[C@@H](c1ccccc1)[C@@](O)(CCN(C)C)c1cccc2ccccc12 [bedaquiline] + CC(C)/N=c1\\cc2n(-c3ccc(Cl)cc3)c3ccccc3nc-2cc1Nc1ccc(Cl)cc1 [clofazimine] + NNC(=O)c1ccncc1 [isoniazid]",
    "quantitative-readout": 0.675
  },
  {
    "compound": "COc1nc2ccc(Br)cc2cc1[C@@H](c1ccccc1)[C@@](O)(CCN(C)C)c1cccc2ccccc12 [bedaquiline] + CC(C)/N=c1\\cc2n(-c3ccc(Cl)cc3)c3ccccc3nc-2cc1Nc1ccc(Cl)cc1 [clofazimine] + CO[C@H]1/C=C/O[C@@]2(C)Oc3c(C)c(O)c4c(O)c(c(/C=N/N5CCN(C6CCCC6)CC5)c(O)c4c3C2=O)NC(=O)/C(C)=C\\C=C\\[C@H](C)[C@H](O)[C@@H](C)[C@@H](O)[C@@H](C)[C@H](OC(C)=O)[C@@H]1C [rifapentine]",
    "quantitative-readout": 0.793
  },
  {
    "compound": "CC[C@@H](CO)NCCN[C@@H](CC)CO [ethambutol] + CC(=O)NC[C@H]1CN(c2ccc(N3CCOCC3)c(F)c2)C(=O)O1 [linezolid] + COc1c(N2C[C@@H]3CCCN[C@@H]3C2)c(F)cc2c(=O)c(C(=O)O)cn(C3CC3)c12 [moxifloxacin]",
    "quantitative-readout": 0.0272
  },
  {
    "compound": "CC(C)/N=c1\\cc2n(-c3ccc(Cl)cc3)c3ccccc3nc-2cc1Nc1ccc(Cl)cc1 [clofazimine] + NNC(=O)c1ccncc1 [isoniazid] + NC(=O)c1cnccn1 [pyrazinamide]",
    "quantitative-readout": 0.25
  },
  {
    "compound": "CC[C@@H](CO)NCCN[C@@H](CC)CO [ethambutol] + NNC(=O)c1ccncc1 [isoniazid] + CC(=O)NC[C@H]1CN(c2ccc(N3CCOCC3)c(F)c2)C(=O)O1 [linezolid]",
    "quantitative-readout": 0.672
  },
  {
    "compound": "CC[C@@H](CO)NCCN[C@@H](CC)CO [ethambutol] + COc1c(N2C[C@@H]3CCCN[C@@H]3C2)c(F)cc2c(=O)c(C(=O)O)cn(C3CC3)c12 [moxifloxacin] + O=[N+]([O-])c1cn2c(n1)OC[C@@H](OCc1ccc(OC(F)(F)F)cc1)C2 [pretomanid]",
    "quantitative-readout": 0.434
  },
  {
    "compound": "COc1nc2ccc(Br)cc2cc1[C@@H](c1ccccc1)[C@@](O)(CCN(C)C)c1cccc2ccccc12 [bedaquiline] + NNC(=O)c1ccncc1 [isoniazid] + COc1c(N2C[C@@H]3CCCN[C@@H]3C2)c(F)cc2c(=O)c(C(=O)O)cn(C3CC3)c12 [moxifloxacin]",
    "quantitative-readout": 0.527
  }
]
